Numbers sourced from PubChem BioAssay AID1259416.

- method: T. gondii growth inhibition with IFN-gamma, primary screen, cell-based (AID 1259416);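 note: host cells are HeLa cells infected with Toxoplasma gondii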
- experimental.context: Toxoplasma gondii growth in IFN-gamma-treated host cells; hits give low values; concentration not given here
About 2,600 (3.8%) of roughly 69,000 compounds were called active. The sample holds actives, similar compounds and a random draw of the others, so the mix is not that of the screen.
Flag rule - activity change, negative = inhibition less than 30% flags Yes; the remaining entries get No.

For orientation, consider the following solved cases.
> print(dat)
                            smiles.notation  category
1  Cn1cc(-c2ccncc2)c(-c2ccc(OCc3ccc4ccccc4n3)cc2)n1       Yes
2  C[C@@H]1CCCCO[C@@H](CN(C)Cc2ccncc2)[C@H](C)CN([C@H](C)CO)C(=O)c2cc(NC(=O)Cc3ccccc3)ccc2O1        No
3  C[C@H](CO)N1C[C@H](C)[C@H](CN(C)Cc2ccncc2)Oc2ccc(NS(=O)(=O)c3ccc(F)cc3)cc2CC1=O        No

Exam item: I wonder whether "NCC(=O)CCC(=O)OCc1ccccc1" has activity change, negative = inhibition below 30%. Can you tell?
Marked response: Yes

Exam item: Below 30% on activity change, negative = inhibition? Entry "Cc1nn(C)cc1-c1c(-c2ccccc2)ncn1CCNC(=O)c1ccncc1"
Marked response: Yes
